Assay: Minimum concentration that produced 50% fragmentation of DNA was measured in the presence of excess calf thymus topoisomerase.
PARAMETER_MEASURED: IC50 (nM)

[
  {
    "QUERY_SMILES": "CCc1c2c(nc3c[n+](C)ccc13)-c1cc3c(c(=O)n1C2)COC(=O)[C@]3(O)CC",
    "ASSAY_RESULT": 1460
  },
  {
    "QUERY_SMILES": "CCc1c2c(nc3cnc(C(=N)N)cc13)-c1cc3c(c(=O)n1C2)COC(=O)[C@]3(O)CC",
    "ASSAY_RESULT": 33
  },
  {
    "QUERY_SMILES": "CC[C@@]1(O)C(=O)OCc2c1cc1n(c2=O)Cc2c-1nc1c[n+]([O-])c(CN)cc1c2C",
    "ASSAY_RESULT": 190
  },
  {
    "QUERY_SMILES": "CCc1c2c(nc3cnc(C#CCN)cc13)-c1cc3c(c(=O)n1C2)COC(=O)[C@]3(O)CC",
    "ASSAY_RESULT": 1080
  },
  {
    "QUERY_SMILES": "CC[C@@]1(O)C(=O)OCc2c1cc1n(c2=O)Cc2c-1nc1cnc(CN)cc1c2C",
    "ASSAY_RESULT": 232
  },
  {
    "QUERY_SMILES": "CCc1c2c(nc3cnc(C(=N)NO)cc13)-c1cc3c(c(=O)n1C2)COC(=O)[C@]3(O)CC",
    "ASSAY_RESULT": 71
  }
]
